meta.source: patent US12617837B2

# Study target: Clec10a-Fc (Mus musculus, UniProt P49300)
# Construct: cloning the extracellular region of mouse Clec10a into a pME18S expression vector; made in house; host or cells: HEK293T cells
# Experimental details: Sugar conjugate (glycan) microarray analysis of Clec10a-Fc (Table 7)
# Format: binding
# Condition info: glycan microarray probed with Clec10a-Fc with EDTA
Result type: Signal value, Clec10a-Fc with EDTA

Name the recorded Signal value, Clec10a-Fc with EDTA of the compound listed here: CC(=O)N[C@H]1[C@H]([C@H](O)[C@H](O)CO)O[C@@](OC[C@H]2O[C@@H](O[C@H]3[C@H](O)[C@@H](O)[C@H](O)O[C@@H]3CO)[C@H](O)[C@@H](O)[C@H]2O)(C(=O)O)C[C@@H]1O [6′SL]
0

Name the recorded Signal value, Clec10a-Fc with EDTA of the compound listed here: CC(=O)N[C@@H]1[C@@H](O[C@H]2O[C@H](CO)[C@H](O)[C@H](O)[C@H]2NC(C)=O)[C@@H](O)[C@@H](CO)O[C@H]1O [Forssman disaccharide]
0

Name the recorded Signal value, Clec10a-Fc with EDTA of the compound listed here: CC(=O)N[C@@H]1[C@@H](O)[C@H](O[C@@H]2O[C@@H](C)[C@@H](O)[C@@H](O)[C@@H]2O)[C@@H](CO)O[C@H]1O [Fucα4GlcNAc]
0

Name the recorded Signal value, Clec10a-Fc with EDTA of the compound listed here: CC(=O)N[C@@H]1[C@@H](O[C@@H]2O[C@H](CO)[C@H](O)[C@H](O)[C@H]2O[C@@H]2O[C@@H](C)[C@@H](O)[C@@H](O)[C@@H]2O)[C@H](O)[C@@H](CO)O[C@H]1O [H type1]
0

Name the recorded Signal value, Clec10a-Fc with EDTA of the compound listed here: CC(=O)N[C@@H]1[C@@H](O[C@@H]2O[C@H](CO)[C@H](O)[C@H](OS(=O)(=O)O)[C@H]2O)[C@H](O)[C@@H](CO)O[C@H]1O [[3′S]Lec]
0

---

Each entry below carries its reported Signal value, Clec10a-Fc.
# Study target: Clec10a-Fc (Mus musculus, UniProt P49300)
# Construct: cloning the extracellular region of mouse Clec10a into a pME18S expression vector; made in house; host or cells: HEK293T cells
# Experimental details: Sugar conjugate (glycan) microarray analysis of Clec10a-Fc (Table 7)
# Assay type: binding
# Condition info: glycan microarray probed with Clec10a-Fc

The examples below pair each entry with its known result.
Compound | Study target | Signal value, Clec10a-Fc
CC(=O)N[C@@H]1[C@@H](O)[C@H](O)[C@@H](COS(=O)(=O)O)O[C@H]1O [[6S]BGlcNAc] | Clec10a-Fc (Mus musculus, UniProt P49300) | 0
CC(=O)N[C@@H]1[C@@H](O[C@@H]2O[C@H](CO)[C@H](O)[C@H](O)[C@H]2O[C@@H]2O[C@@H](C)[C@@H](O)[C@@H](O)[C@@H]2O)[C@H](O[C@@H]2O[C@@H](C)[C@@H](O)[C@@H](O)[C@@H]2O)[C@@H](CO)O[C@H]1O | Clec10a-Fc (Mus musculus, UniProt P49300) | 0

Name the recorded Signal value, Clec10a-Fc of the compound listed here: CC(=O)N[C@@H]1[C@@H](O[C@@H]2O[C@H](CO)[C@H](O)[C@H](OS(=O)(=O)O)[C@H]2O)[C@H](O[C@@H]2O[C@@H](C)[C@@H](O)[C@@H](O)[C@@H]2O)[C@@H](CO)O[C@H]1O [[3S]Lea]
0

---

Each entry below carries its reported Signal value, human IgG1.
# Test system: human IgG1
# Experimental details: Glycan microarray probed with human IgG1 (control of Table 7)
# Format: binding
# output: bare number, no unit

The examples below pair each entry with its known result.
Compound | Signal value, human IgG1
CC(=O)N[C@@H]1[C@@H](O)[C@@H](O)[C@@H](CO)O[C@H]1O [βGalNAc] | 0
CC(=O)N[C@@H]1[C@@H](O)[C@H](O[C@@H]2O[C@H](CO)[C@H](O)[C@H](O)[C@H]2O)[C@@H](CO)O[C@H]1O [LN] | 0
CC(=O)N[C@@H]1[C@@H](O)[C@H](O)[C@@H](CO)O[C@H]1O [BGlcNAc] | 205

Name the recorded Signal value, human IgG1 of the compound listed here: CC(=O)N[C@@H]1[C@@H](O[C@@H]2O[C@H](CO)[C@H](O)[C@H](OS(=O)(=O)O)[C@H]2O)[C@H](O)[C@@H](CO)O[C@H]1O [[3′S]Lec]
0

Name the recorded Signal value, human IgG1 of the compound listed here: CC(=O)N[C@H]1[C@H]([C@H](O)[C@H](O)CO)O[C@@](O[C@H](CO)[C@@H](O)[C@@H]2O[C@@](O)(C(=O)O)C[C@H](O)[C@H]2NC(C)=O)(C(=O)O)C[C@@H]1O [Siα2]
0

Name the recorded Signal value, human IgG1 of the compound listed here: CC(=O)N[C@@H]1[C@@H](O)[C@H](O[C@@H]2O[C@H](CO)[C@H](O)[C@H](O)[C@H]2NC(C)=O)[C@@H](CO)O[C@H]1O [LDN]
0

---

# Study target: Clec10a-Fc (Mus musculus)
# Construct: cloning the extracellular region of mouse Clec10a into a pME18S expression vector; made in house; host or cells: HEK293T cells
# Sequence (P49300 57-304 limits assumed): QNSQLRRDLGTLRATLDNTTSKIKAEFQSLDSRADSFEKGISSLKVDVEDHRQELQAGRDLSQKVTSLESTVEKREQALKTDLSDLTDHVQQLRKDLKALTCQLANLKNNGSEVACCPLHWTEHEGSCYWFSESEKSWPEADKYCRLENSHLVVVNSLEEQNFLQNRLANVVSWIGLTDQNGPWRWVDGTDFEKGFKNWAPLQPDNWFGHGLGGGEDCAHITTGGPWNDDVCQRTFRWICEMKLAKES
# Experimental details: Sugar conjugate (glycan) microarray analysis of Clec10a-Fc (Table 7)
# Format: binding
# Condition info: glycan microarray probed with Clec10a-Fc
# Procedure: A sugar conjugate microarray containing 98 sugar conjugates (Table 3) was prepared according to a known method using a non-contact microarray printing robot (MicroSys 4000; Genomic Solutions).
Result type: Signal value, Clec10a-Fc

The examples below pair each entry with its known result.
Molecule | Result
CC(=O)N[C@@H]1[C@@H](O[C@@H]2O[C@H](CO)[C@@H](O)[C@H](O)[C@H]2NC(C)=O)[C@@H](O)[C@@H](CO[C@@H]2O[C@H](CO)[C@@H](O)[C@H](O)[C@H]2NC(C)=O)O[C@@H]1O [Core4] | 0
CC(=O)N[C@H]1[C@H]([C@H](O)[C@H](O)CO)O[C@@](O[C@H](CO)[C@@H](O)[C@@H]2O[C@@](O[C@H](CO)[C@@H](O)[C@@H]3O[C@@](O)(C(=O)O)C[C@H](O)[C@H]3NC(C)=O)(C(=O)O)C[C@H](O)[C@H]2NC(C)=O)(C(=O)O)C[C@@H]1O [Sia3] | 19
CC(=O)N[C@H]1[C@H]([C@H](O)[C@H](O)CO)O[C@@](O[C@H]2[C@@H](O)[C@@H](CO)O[C@@H](O[C@H]3[C@H](O)[C@@H](O)[C@H](O)O[C@@H]3CO)[C@@H]2O)(C(=O)O)C[C@@H]1O [3′SL] | 5
OC[C@H]1O[C@H](OCC2O[C@@H](O)[C@H](O)[C@@H](O)[C@@H]2O)[C@H](O)[C@@H](O)[C@H]1O (some centres unmarked) [Melibiose] | 45
CC(=O)N[C@@H]1[C@@H](O[C@@H]2O[C@H](CO)[C@H](O)[C@H](O)[C@H]2NC(C)=O)[C@@H](O)[C@@H](CO)O[C@H]1O [di-GalNAcβ] | 65

Name the recorded Signal value, Clec10a-Fc of the molecule listed here: OC[C@H]1O[C@@H](O)[C@H](O)[C@@H](O)[C@H]1O [βGal]
1867

Name the recorded Signal value, Clec10a-Fc of the molecule listed here: CC(=O)N[C@@H]1[C@@H](O)[C@H](O[C@@H]2O[C@H](CO)[C@H](O)[C@H](O[C@H]3O[C@H](CO)[C@H](O)[C@H](O)[C@H]3NC(C)=O)[C@H]2O[C@@H]2O[C@@H](C)[C@@H](O)[C@@H](O)[C@@H]2O)[C@@H](CO)O[C@H]1O [A]
0

---

# Study target: Clec10a-Fc (Mus musculus, UniProt P49300)
# Construct: cloning the extracellular region of mouse Clec10a into a pME18S expression vector; made in house; host or cells: HEK293T cells
# Experimental details: Sugar conjugate (glycan) microarray analysis of Clec10a-Fc (Table 7)
# Type: binding
# Condition info: glycan microarray probed with Clec10a-Fc with EDTA
# Experimental: A sugar conjugate microarray containing 98 sugar conjugates (Table 3) was prepared according to a known method using a non-contact microarray printing robot (MicroSys 4000; Genomic Solutions).
Each entry below carries its reported Signal value, Clec10a-Fc with EDTA.
# output: bare number, no unit

The examples below pair each entry with its known result.
Sample smiles | Signal value, Clec10a-Fc with EDTA
CC(=O)N[C@@H]1[C@@H](O)[C@H](O[C@@H]2O[C@H](CO)[C@H](O)[C@H](O[C@H]3O[C@H](CO)[C@H](O)[C@H](O)[C@H]3O)[C@H]2O[C@@H]2O[C@@H](C)[C@@H](O)[C@@H](O)[C@@H]2O)[C@@H](CO)O[C@H]1O | 0
CC(=O)N[C@@H]1[C@@H](O[C@@H]2O[C@H](CO)[C@H](O)[C@H](O)[C@H]2O)[C@@H](O)[C@@H](CO)O[C@@H]1O | 0

Please find the next molecule below.
Name the recorded Signal value, Clec10a-Fc with EDTA of the molecule listed here: OC[C@H]1O[C@H](O[C@H]2[C@H](O)[C@@H](O)[C@H](O)O[C@@H]2CO)[C@H](O)[C@@H](O)[C@@H]1O
1
